System: MS2 coat protein
Procedure Text: apparent KD of MS2 coat protein; designed switch direction (-1 OFF switch, 1 ON switch): -1; higher = weaker reporter binding
Condition Notes: input ligand: none
Below, each entry is listed with its recorded apparent KD of MS2 coat protein.
Could you give me the number in nM? Just the number is fine.

GGUCAGAUGGUAGGAUAUUCAUAUCGAGUGACCCUUUCAUAACAUGAGGAUCACCCAUGUCGGUGGGAGAAGGGCCGUACGGCG [salish99_ExNG02_R04_014] (Eterna round: R96, puzzle: Exclusion NG 2) ... 50.7

As a next step, examine the sequence that follows.
Q: What value of apparent KD of MS2 coat protein has been reported for the following sequence? GGGUGCAGGCUGAGGUCCUACAUGAGGAUCACCCAUGUGGUCCGGUGACGUGGGUCGCCGGACUUGGCUCGUCUUGU [salish99_S_TOV1_R5_012] (Eterna round: R97, puzzle: Sensor, turn-off variant 1)
Ans: 48.6
